- Protocol Details: qHTS assay to identify small molecule agonists of the sonic hedgehog signaling (Shh) pathway - cell viability counter screen (AID 1259366); note: nearly all actives have a fitted effect of over 50% in size
- Recorded Conditions: NIH/3T3 Gli1-Luc viability, CellTiter-Fluor, 24 h; series mostly up to 92.4 µM
- Source text: National Center for Advancing Translational Sciences [NCATS] NIH Chemical Genomics Center [NCGC] U.S. Environmental Protection Agency [EPA] National Institutes of Environmental Health Sciences [NIEHS] National Toxicology Program [NTP] U.S. Food and Drug Administration [FDA] The sonic hedgehog (Shh) pathway is essential for normal embryonic development. Dysregulation of the Shh pathway can cause severe developmental defects in organs. […]
Records with an inconclusive call do not appear. Calls of active or inactive are those of the source. Calls come from the whole dose curve; as a rule, active = well fitted cell-killing curve with a large enough effect in the repeat runs; inconclusive = weak or mixed curves, or effect the other way; inactive = flat fitted curve, though single readings scatter.
Form entry, call: pick from active, inactive

CN/C(=N\[N+](=O)[O-])NCc1cnc(Cl)s1 :: inactive
O.O.O.O.O.O.O=S(=O)([O-])[O-].[Ni+2] :: inactive
O=[N+]([O-])c1ccc(Cl)c(Cl)c1Cl :: inactive
Cc1ccn2nc(S(=O)(=O)Nc3c(F)cccc3F)nc2n1 :: inactive
CC(=O)[O][Pb]([c]1ccccc1)([c]1ccccc1)[c]1ccccc1 :: active
Oc1cc(Cl)c(Cl)c(Cl)c1Cl :: inactive
Oc1ccc(Cl)c(Cl)c1 :: inactive
OCC(Br)CBr (stereo not given) :: inactive
Cc1c([N+](=O)[O-])c(C)c([N+](=O)[O-])c(C(C)(C)C)c1[N+](=O)[O-] :: inactive
CC1CN1 (stereo not given) :: inactive

Exercise: Record request — test call for CC(C)=CCN1CC[C@@]2(C)c3cc(O)ccc3C[C@@H]1[C@@H]2C
Key: inactive

Exercise: Record request — test call for N#CC(C#N)=NNc1cccc(Cl)c1
Key: active

Exercise: Record request — test call for ClSC(Cl)(Cl)Cl
Key: inactive

Exercise: Record request — test call for Clc1ccc(C2(Cn3cncn3)OCCO2)c(Cl)c1
Key: inactive

Exercise: Record request — test call for CCNc1nc(NC(C)C(C)C)nc(SC)n1 (stereo not given)
Key: inactive

Exercise: Record request — test call for O=[N+]([O-])c1ccc(CCl)cc1
Key: inactive

Exercise: Record request — test call for CCN(CC)CCN1C(=O)CN=C(c2ccccc2F)c2cc(Cl)ccc21
Key: inactive

Exercise: Record request — test call for CC(C)C(Nc1ccc(C(F)(F)F)cc1Cl)C(=O)OC(C#N)c1cccc(Oc2ccccc2)c1 (stereo not given)
Key: inactive
